Source listed as PubChem BioAssay AID1159580.

The reader will find reported normalized growth values listed item by item below.
# experiment_summary: chemical genetic growth profiling, strain panel (AID 1159580);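 further: tested at 20 µM; growth read once vehicle control cultures reached saturation at 30 °C; 1 = growth at the plate median or of vehicle wells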
# details: S. cerevisiae deletion strains, growth OD, locus YPR163C, strain tif3, active compounds read low
In all, about 5,500 compounds went through this assay and about 2,000 (36%) were called active. Another 18% or so got no clear call; they are omitted. The list shows a part of the results.
Just the number, please.

Look over these answered cases.
compound	result
N=C(N)N	0.976
CC(C)=CCCC(C)C1CC[C@@]2(C)C3=C(CC[C@]12C)C1(C)CC[C@H](O)C(C)(C)C1CC3 (some centres undefined)	0.93
CNNC	0.994

Data request: // fetch normalized growth given entry CC(C)=CCCC(C)[C@@H]1CC[C@]2(C)C3=C(CC[C@@]12C)C1(C)CC[C@H](O)C(C)(C)C1CC3 (some centres undefined)
Data returned: 0.975

Data request: Determine from records and report normalized growth for N[C@@H](CCC(=O)N[C@@H](CS)C(=O)NCC(=O)O)C(=O)O
Data returned: 0.996

Data request: Fill in reported normalized growth for this entry: CC(=O)O[C@@H]1C=C[C@@]2(C)C(C[C@@H](OC(C)=O)[C@@]3(C)C4=CC(=O)O[C@@H](c5ccoc5)[C@]4(C)CCC23)C1(C)C (some centres undefined)
Data returned: 0.0691

Data request: Find the measured normalized growth of CC(C)CCCC(C)C1CC[C@@]2(C)C3=C(CC[C@]12C)[C@@]1(C)CC[C@H](O)C(C)(C)C1CC3 (some centres undefined) and report it.
Data returned: 0.981

Data request: Identify normalized growth associated with the compound CC(C)(C)NCC(O)c1ccc(O)c(CO)c1 (centres undefined)
Data returned: 1.02

Data request: Assign normalized growth to the following record: CC(=O)Oc1ccc(C(c2ccc(OC(C)=O)cc2)c2ccccn2)cc1
Data returned: 0.996

Data request: For the compound C=C1c2cccc(O)c2C(O)=C2C(=O)[C@]3(O)C(O)=C(C(N)=O)C(=O)[C@@H](N(C)C)[C@@H]3[C@@H](O)[C@H]12 , report normalized growth.
Data returned: 0.992

Data request: Tell me its normalized growth given CC(=O)Oc1ccc(O)cc1 as the entry.
Data returned: 0.974

Data request: Using known records, supply normalized growth for CC(=O)O[C@H]1CCC2(C)C3=C(CCC2C1(C)C)[C@@]1(C)CC[C@@H](C(C)CCC=C(C)C)[C@]1(C)CC3 (some centres undefined)
Data returned: 1.04

Data request: Retrieve normalized growth measured for C[C@H]1c2cccc(O)c2C(O)=C2C(=O)[C@]3(O)C(O)=C(C(N)=O)C(=O)[C@@H](N(C)C)[C@@H]3[C@@H](O)[C@@H]21 and print it.
Data returned: 0.985

Data request: Give the value of normalized growth reported for the following: CC(=O)OC1CCC2(C)C(CC(OC(C)=O)C3(C)C4=CC(=O)OC(c5ccoc5)C4(C)CCC23)C1(C)C (centres undefined)
Data returned: 0.999

Data request: Identify the reported normalized growth for the following entry. CC(Cc1cccc(C(F)(F)F)c1)NCCOC(=O)c1ccccc1 (centres undefined)
Data returned: 0.928

====

# experiment_summary: chemical genetic growth profiling, strain panel (AID 1159580)
# details: S. cerevisiae deletion strains, growth OD, locus YCL029C, strain bik1, active compounds read low
Hit rate of the full screen: of about 5,500 compounds, about 2,000 (36%) were called active. Another 18% or so got no clear call; they are omitted. The list shows a part of the results.
Output Y for records whose normalized growth is lower than 1, N for records at or above 1.

See these solved cases before continuing.
>>> print(df.to_string())
                                   compound  answer_label
0  CS(=O)(=O)Nc1ccc([N+](=O)[O-])cc1Oc1ccccc1             Y
1       Oc1c(Cl)cc(Cl)cc1Sc1cc(Cl)cc(Cl)c1O             Y
2  CC(Cc1cccc(C(F)(F)F)c1)NCCOC(=O)c1ccccc1 (centres undefined)             N
3  CC(N=C(NC#N)Nc1ccncc1)C(C)(C)C (centres undefined)             N
4          C/C1=C/CC(C)(C)/C=C/C/C(C)=C/CC1             N

Data request: Problem: For the compound CN[C@@H]1[C@H](O)[C@H](NC)[C@H]2O[C@@]3(O)C(=O)C[C@@H](C)O[C@H]3O[C@@H]2[C@H]1O , is normalized growth under 1?
Data returned: N

Data request: Identify whether the compound COc1ccc2cc(CCC(C)=O)ccc2c1 records normalized growth below 1.
Data returned: Y

Data request: Consider COc1cc(C/C=C/c2ccccc2)c(OC)cc1O . Does its normalized growth lie strictly below 1?
Data returned: Y

Data request: Field: below-cutoff. Rule: recorded normalized growth strictly less than 1. Subject: CC(C)CC1NC(=O)CNC1=O (centres undefined)
Data returned: Y

====

Below, each entry is listed alongside its reported normalized growth.
# experiment_summary: chemical genetic growth profiling, strain panel (AID 1159580);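 further: tested at 20 µM; growth read once vehicle control cultures reached saturation at 30 °C; 1 = growth at the plate median or of vehicle wells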
# details: S. cerevisiae deletion strains, growth OD, locus YNR049C, strain mso1, active compounds read low
The campaign covered roughly 5,500 compounds. About 2,000 (36%) were called active. Inconclusive results (about 18%) are left out. Some of the results follow.
Enter a number only.

Some compounds with known normalized growth results, for comparison:
compound	observable	result
CN(C)CCCN1c2ccccc2Sc2ccc(Cl)cc21	normalized growth	0.0933
CN(C)CCCN1c2ccccc2Sc2ccccc21	normalized growth	0.996
CC(=O)O[C@@H]1C=C[C@@]2(C)C(C[C@@H](OC(C)=O)[C@@]3(C)C4=CC(=O)O[C@@H](c5ccoc5)[C@]4(C)CCC23)C1(C)C (stereo partly drawn)	normalized growth	0.975
CN(C)C(=O)Oc1cccc([N+](C)(C)C)c1	normalized growth	0.98
O=C(NCO)c1cccnc1	normalized growth	1.01

Data request: In one line, give reported normalized growth of the entry CC(=O)O[C@H]1CCC2(C)C3=C(CCC2C1(C)C)[C@@]1(C)CC[C@@H](C(C)CCC=C(C)C)[C@]1(C)CC3 (stereo partly drawn) .
Data returned: 1.03

Data request: For the compound CC(C)CCCC(C)[C@H]1CCC2C3CC=C4C[C@@H](O)CC[C@]4(C)C3CC[C@@]21C (stereo partly drawn) , give its measured normalized growth value.
Data returned: 0.981

Data request: Quick one: give measured normalized growth for CC(C)CCCC(C)C1CCC2C3=CC[C@H]4C[C@@H](O)CC[C@]4(C)C3CC[C@@]21C (stereo partly drawn)
Data returned: 0.982

====

This listing pairs molecules with measured normalized growth.
# experiment_summary: chemical genetic growth profiling, strain panel (AID 1159580);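 further: tested at 20 µM; growth read once vehicle control cultures reached saturation at 30 °C; 1 = growth at the plate median or of vehicle wells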
# details: S. cerevisiae deletion strains, growth OD, locus YGR040W, strain KSS1, active compounds read low
Hit rate of the full screen: of about 5,500 compounds, about 2,000 (36%) were called active. About 18% were inconclusive and are not listed. Some of the results follow.
Answer with the value's number alone.

                                     smiles  result
0  N/C(Cc1cccc2ccccc12)=N/OC(=O)c1ccc(Cl)cc1   0.937

Data request: Identify measured normalized growth corresponding to O=S(=O)(Nc1ccccc1Oc1ccccc1)c1ccc(-c2ccno2)s1
Data returned: 0.929

Data request: Indicate its recorded normalized growth; the molecule in question is N#CSCC(=O)c1ccccc1
Data returned: 0.119

====

Entries and their normalized growth
# experiment_summary: chemical genetic growth profiling, strain panel (AID 1159580);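 further: tested at 20 µM; growth read once vehicle control cultures reached saturation at 30 °C; 1 = growth at the plate median or of vehicle wells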
# details: S. cerevisiae deletion strains, growth OD, locus YEL003W, strain gim4, active compounds read low
Screen size: about 5,500 compounds; about 2,000 (36%) were called active. About 18% were inconclusive and are not listed. Some of the results follow.
Provide a numeric answer; units are not to be included.

In [3]: df
Out[3]:
                                     smiles         observable  result
0  CS(=O)(=O)c1ccc([C@@H](O)[C@@H](CO)NC(=O)C(Cl)Cl)cc1  normalized growth    1.01
1                               Cc1cn[nH]c1  normalized growth    1.02
2                 CCCc1cc(=O)[nH]c(=S)[nH]1  normalized growth    1.01
3    CC(=O)N[C@@H](Cc1c[nH]c2ccccc12)C(N)=O  normalized growth    1.01
4  N[C@@H](CCC(=O)N[C@@H](CS)C(=O)NCC(=O)O)C(=O)O  normalized growth   0.992
5                        C[n+]1ccccc1/C=N/O  normalized growth    1.01
6                 Cc1cc(=O)oc2cc(O)cc(O)c12  normalized growth   0.978
7         CC(C)(C)NC[C@H](O)c1ccc(O)c(CO)c1  normalized growth    1.01
8                 Cc1cc(=O)oc2cc(O)c(O)cc12  normalized growth   0.981

Data request: Identify the reported normalized growth for the following entry. CCOC(=O)[C@H](CCc1ccccc1)N[C@@H](C)C(=O)N1CCC[C@H]1C(=O)O
Data returned: 1
